Tested on: Caco-2
method-notes: Antiproliferative activity against human Caco-2 cells assessed as reduction in cell growth incubated for 24 hrs
Assay type: functional, cell-based
protocol-conditions: Caco-2, 24 h
recorded-endpoint: IC50 (µM)
One number for each entry, in µM.

Exercise: Lab note: need IC50 with Caco-2 for entry CC(C)OC(=O)/C(=N/NC(=O)c1ccc(CO[Si](C)(C)C(C)(C)C)o1)c1ccccc1 , please look it up.
Solution: 40.1

----------
target-under-test: Human immunodeficiency virus type 1 reverse transcriptase (Human immunodeficiency virus 1)
method-notes: Inhibition of recombinant HIV-1 reverse transcriptase
recorded-endpoint: IC50

Exercise: Returns the measured IC50 for the input compound. Input: C[Si](O)(O[Si](C)(CCCn1cnc2c(N)ncnc21)c1ccccc1)c1ccccc1 (stereo unspecified)
Solution: 6 µM

----------
method-notes: Inhibition of soya bean lipoxygenase
Set-up: species or system Glycine max
recorded-endpoint: pIC50
One number for each entry, as −log10 of the molar value.

Exercise: Returns the measured pIC50 for the input compound. Input: C[Si](C)(C)CCC[n+]1ccsc1N.[I-]
Solution: 8.00

----------
target-under-test: Histone deacetylase 4 (Homo sapiens)
Sequence (P56524 whole entry): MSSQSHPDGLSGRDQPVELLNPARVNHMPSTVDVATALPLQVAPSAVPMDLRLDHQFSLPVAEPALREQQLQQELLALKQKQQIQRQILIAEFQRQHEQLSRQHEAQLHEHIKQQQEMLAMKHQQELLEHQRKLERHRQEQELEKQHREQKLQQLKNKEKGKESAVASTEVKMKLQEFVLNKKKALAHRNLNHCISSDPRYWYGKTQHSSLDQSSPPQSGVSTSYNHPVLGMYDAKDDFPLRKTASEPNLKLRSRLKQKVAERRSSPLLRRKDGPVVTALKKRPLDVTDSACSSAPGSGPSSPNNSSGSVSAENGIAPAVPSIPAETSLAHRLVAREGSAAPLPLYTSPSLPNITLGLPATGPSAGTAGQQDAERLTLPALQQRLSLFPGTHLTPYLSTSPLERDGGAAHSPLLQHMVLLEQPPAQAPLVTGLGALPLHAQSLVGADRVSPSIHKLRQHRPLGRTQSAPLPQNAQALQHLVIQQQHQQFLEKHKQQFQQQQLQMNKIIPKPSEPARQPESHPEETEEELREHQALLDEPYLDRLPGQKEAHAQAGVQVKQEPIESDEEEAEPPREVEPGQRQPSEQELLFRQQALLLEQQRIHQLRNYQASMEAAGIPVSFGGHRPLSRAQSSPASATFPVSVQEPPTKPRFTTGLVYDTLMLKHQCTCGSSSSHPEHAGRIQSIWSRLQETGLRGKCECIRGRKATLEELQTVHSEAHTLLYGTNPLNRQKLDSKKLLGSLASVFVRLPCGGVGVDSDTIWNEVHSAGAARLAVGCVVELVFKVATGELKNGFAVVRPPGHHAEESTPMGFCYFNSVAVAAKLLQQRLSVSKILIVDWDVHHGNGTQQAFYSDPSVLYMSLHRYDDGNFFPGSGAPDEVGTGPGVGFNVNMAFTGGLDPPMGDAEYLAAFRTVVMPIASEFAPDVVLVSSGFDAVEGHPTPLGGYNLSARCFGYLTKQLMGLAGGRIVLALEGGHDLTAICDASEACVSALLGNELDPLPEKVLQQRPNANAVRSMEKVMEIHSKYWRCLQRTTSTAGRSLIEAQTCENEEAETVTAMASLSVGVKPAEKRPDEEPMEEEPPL
method-notes: Inhibition of human recombinant HDAC4 using Ac-Leu-Gly-Lys(Tfa)-AMC as substrate incubated for 30 mins by EnSpire plate reader analysis
recorded-endpoint: IC50 (nM)
Numbers only, in nM.

Exercise: Returns the measured IC50 for the input compound. Input: C[Si](O)(O)CCCCCCC(=O)Nc1ccccc1
Solution: 600

----------
target-under-test: Protein deacetylase HDAC6 (Homo sapiens, UniProt Q9UBN7)
method-notes: Inhibition of human recombinant HDAC6 using Ac-Leu-Gly-Lys(Ac)-AMC as substrate incubated for 30 mins by EnSpire plate reader analysis
recorded-endpoint: pIC50
Answers are plain numbers, as −log10 of the molar value.

Exercise: Returns the measured pIC50 for the input compound. Input: C[Si](O)(O)CCCCCCC(=O)Nc1ccccc1
Solution: 6.22

----------
method-notes: Acute toxicity in ip dosed Sprague-Dawley rat assessed as lethal dose
Format: organism-based
protocol-conditions: in vivo
recorded-endpoint: LD50

Exercise: Returns the measured LD50 for the input compound. Input: C[Si](C)(C)c1cccc(C(=O)C(F)(F)F)c1
Solution: 180 mg/kg

----------
target-under-test: Angiotensin-converting enzyme (Homo sapiens, UniProt P12821)
Sequence (P12821 whole entry): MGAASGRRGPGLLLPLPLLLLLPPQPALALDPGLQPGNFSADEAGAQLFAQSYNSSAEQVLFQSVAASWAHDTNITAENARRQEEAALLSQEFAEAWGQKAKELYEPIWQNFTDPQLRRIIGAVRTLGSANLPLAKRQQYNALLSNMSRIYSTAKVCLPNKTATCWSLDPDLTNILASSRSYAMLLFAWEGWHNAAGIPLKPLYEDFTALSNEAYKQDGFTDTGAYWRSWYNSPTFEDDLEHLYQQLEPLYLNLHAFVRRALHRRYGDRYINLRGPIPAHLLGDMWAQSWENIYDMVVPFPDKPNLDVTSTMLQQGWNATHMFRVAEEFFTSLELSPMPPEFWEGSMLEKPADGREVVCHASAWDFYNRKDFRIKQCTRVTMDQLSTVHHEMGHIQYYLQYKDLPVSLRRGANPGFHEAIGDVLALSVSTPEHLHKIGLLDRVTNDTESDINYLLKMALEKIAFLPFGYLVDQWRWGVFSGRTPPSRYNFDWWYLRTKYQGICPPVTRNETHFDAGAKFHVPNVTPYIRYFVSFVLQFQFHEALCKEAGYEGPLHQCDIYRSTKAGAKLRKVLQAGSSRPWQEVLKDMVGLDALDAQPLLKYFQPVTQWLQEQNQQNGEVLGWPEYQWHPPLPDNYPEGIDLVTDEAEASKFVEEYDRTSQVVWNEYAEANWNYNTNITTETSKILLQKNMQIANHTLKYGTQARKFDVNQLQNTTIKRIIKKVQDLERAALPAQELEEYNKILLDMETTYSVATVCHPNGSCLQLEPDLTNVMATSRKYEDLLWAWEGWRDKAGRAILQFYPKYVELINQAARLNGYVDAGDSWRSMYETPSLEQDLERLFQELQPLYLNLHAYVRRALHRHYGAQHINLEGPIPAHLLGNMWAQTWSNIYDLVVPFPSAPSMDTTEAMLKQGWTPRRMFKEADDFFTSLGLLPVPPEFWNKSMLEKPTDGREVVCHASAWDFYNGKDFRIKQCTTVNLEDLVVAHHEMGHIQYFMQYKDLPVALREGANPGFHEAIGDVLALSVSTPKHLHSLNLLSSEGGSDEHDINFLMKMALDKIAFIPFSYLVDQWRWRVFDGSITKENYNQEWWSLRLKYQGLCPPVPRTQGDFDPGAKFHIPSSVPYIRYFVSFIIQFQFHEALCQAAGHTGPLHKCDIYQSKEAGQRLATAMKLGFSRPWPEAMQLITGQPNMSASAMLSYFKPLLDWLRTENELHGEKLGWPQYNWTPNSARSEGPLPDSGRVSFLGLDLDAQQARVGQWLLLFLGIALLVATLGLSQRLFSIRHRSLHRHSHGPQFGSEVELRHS
method-notes: Inhibition of ACE (unknown origin) using Hip-His-Leu-OH peptide as substrate by fluorimetric analysis
recorded-endpoint: IC50 (µM)
Give bare numbers, in µM.

Exercise: Returns the measured IC50 for the input compound. Input: CC(CS)C(=O)N1C[Si](C)(C)C[C@H]1C(=O)O (mixture of isomers)
Solution: 0.043

----------
Test system: Human immunodeficiency virus 2
method-notes: Antiviral activity against HIV-2 ROD infected in human MT-4 cells assessed as reduction in virus-induced cytopathic effect incubated for 5 days by spectrophotometric based MTT assay
Assay type: functional, organism-based
protocol-conditions: Human immunodeficiency virus 2, ROD, MT4, 120 h
Hi there, I'd appreciate the recorded EC50 for every entry that follows.
Numbers only, in µg/mL.

Examples from the recorded data:
smiles-input: CC(C)(C)[Si](C)(C)OC[C@H]1O[C@@H](n2ccc(=O)[nH]c2=O)[C@H](O[Si](C)(C)C(C)(C)C)[C@]12OS(=O)(=O)C=C2N
EC50 / µg/mL: 0.114
--
smiles-input: CC(=O)Nc1ccn([C@@H]2O[C@H](CO[Si](C)(C)C(C)(C)C)[C@@]3(OS(=O)(=O)C=C3N)[C@H]2O[Si](C)(C)C(C)(C)C)c(=O)n1
EC50 / µg/mL: 0.097

Exercise: Returns the measured EC50 for the input molecule. Input: Cc1cn([C@@H]2O[C@H](CO[Si](C)(C)C(C)(C)C)[C@@]3(OS(=O)(=O)C=C3N)[C@H]2O[Si](C)(C)C(C)(C)C)c(=O)[nH]c1=O
Solution: 0.034

----------
System: Panel NCI-60 (60 carcinoma cell lines)
method-notes: Cytotoxicity against human Panel NCI-60 (60 carcinoma cell lines) assessed as reduction in cell growth incubated for 72 hrs by CCK-8 assay
Format: functional, cell-based
recorded-endpoint: IC50 (nM)
Answers are plain numbers, in nM.

Examples from the recorded data:
smiles-input: CCCC[Si](C)(C)Oc1ccc(C(=O)N[C@@H](Cc2ccc(-c3ccccc3)cc2)C(=O)NC2CC(C)(C)NC(C)(C)C2)cc1
output-unit: nM
IC50: 1500
//
smiles-input: CC1(C)CC(NC(=O)[C@H](Cc2ccc(OCc3c(Cl)cccc3Cl)cc2)NC(=O)c2ccc(OCC[Si](C)(C)C)cc2)CC(C)(C)N1
output-unit: nM
IC50: 1500

Batch request: IC50 for each of the following molecules.
1. CCC[Si](C)(C)Oc1ccc(C(=O)N[C@@H](Cc2ccc(OCc3c(Cl)cccc3Cl)cc2)C(=O)NC2CC(C)(C)NC(C)(C)C2)cc1
2. CCOP(=O)(OCC)C(NC(=O)[C@H](Cc1ccc(-c2ccccc2)cc1)NC(=O)c1ccc(OCC[Si](C)(C)C)cc1)P(=O)(OCC)OCC
3. CC1(C)CC(NC(=O)[C@H](Cc2ccc(-c3ccccc3)cc2)NC(=O)c2ccc(OCC[Si](C)(C)C)cc2)CC(C)(C)N1

Solution:
1: 1500; 2: 1500; 3: 1500

----------
target-under-test: Interstitial collagenase (Homo sapiens)
Sequence (P03956 whole entry): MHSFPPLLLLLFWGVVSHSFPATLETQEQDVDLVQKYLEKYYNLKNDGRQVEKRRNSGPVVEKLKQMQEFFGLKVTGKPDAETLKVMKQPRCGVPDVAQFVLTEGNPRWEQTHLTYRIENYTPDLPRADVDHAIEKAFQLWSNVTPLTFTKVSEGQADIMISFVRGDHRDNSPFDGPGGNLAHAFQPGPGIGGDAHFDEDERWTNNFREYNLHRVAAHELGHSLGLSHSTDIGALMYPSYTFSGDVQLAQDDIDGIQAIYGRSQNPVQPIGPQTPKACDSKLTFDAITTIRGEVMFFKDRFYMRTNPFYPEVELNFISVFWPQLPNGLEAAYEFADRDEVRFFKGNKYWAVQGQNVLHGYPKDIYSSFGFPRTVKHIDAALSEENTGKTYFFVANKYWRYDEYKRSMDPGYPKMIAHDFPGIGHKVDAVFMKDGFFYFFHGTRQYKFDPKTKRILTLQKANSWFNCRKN
method-notes: Inhibition of MMP-1 (unknown origin)
recorded-endpoint: IC50

Exercise: Returns the measured IC50 for the input molecule. Input: C[Si](C)(C)n1c(=S)c(=P(c2ccccc2)(c2ccccc2)c2ccccc2)/c1=N/c1ccccc1
Solution: ~41 nM

----------
target-under-test: Histone deacetylase 5 (Homo sapiens, UniProt Q9UQL6)
Sequence (Q9UQL6 whole entry): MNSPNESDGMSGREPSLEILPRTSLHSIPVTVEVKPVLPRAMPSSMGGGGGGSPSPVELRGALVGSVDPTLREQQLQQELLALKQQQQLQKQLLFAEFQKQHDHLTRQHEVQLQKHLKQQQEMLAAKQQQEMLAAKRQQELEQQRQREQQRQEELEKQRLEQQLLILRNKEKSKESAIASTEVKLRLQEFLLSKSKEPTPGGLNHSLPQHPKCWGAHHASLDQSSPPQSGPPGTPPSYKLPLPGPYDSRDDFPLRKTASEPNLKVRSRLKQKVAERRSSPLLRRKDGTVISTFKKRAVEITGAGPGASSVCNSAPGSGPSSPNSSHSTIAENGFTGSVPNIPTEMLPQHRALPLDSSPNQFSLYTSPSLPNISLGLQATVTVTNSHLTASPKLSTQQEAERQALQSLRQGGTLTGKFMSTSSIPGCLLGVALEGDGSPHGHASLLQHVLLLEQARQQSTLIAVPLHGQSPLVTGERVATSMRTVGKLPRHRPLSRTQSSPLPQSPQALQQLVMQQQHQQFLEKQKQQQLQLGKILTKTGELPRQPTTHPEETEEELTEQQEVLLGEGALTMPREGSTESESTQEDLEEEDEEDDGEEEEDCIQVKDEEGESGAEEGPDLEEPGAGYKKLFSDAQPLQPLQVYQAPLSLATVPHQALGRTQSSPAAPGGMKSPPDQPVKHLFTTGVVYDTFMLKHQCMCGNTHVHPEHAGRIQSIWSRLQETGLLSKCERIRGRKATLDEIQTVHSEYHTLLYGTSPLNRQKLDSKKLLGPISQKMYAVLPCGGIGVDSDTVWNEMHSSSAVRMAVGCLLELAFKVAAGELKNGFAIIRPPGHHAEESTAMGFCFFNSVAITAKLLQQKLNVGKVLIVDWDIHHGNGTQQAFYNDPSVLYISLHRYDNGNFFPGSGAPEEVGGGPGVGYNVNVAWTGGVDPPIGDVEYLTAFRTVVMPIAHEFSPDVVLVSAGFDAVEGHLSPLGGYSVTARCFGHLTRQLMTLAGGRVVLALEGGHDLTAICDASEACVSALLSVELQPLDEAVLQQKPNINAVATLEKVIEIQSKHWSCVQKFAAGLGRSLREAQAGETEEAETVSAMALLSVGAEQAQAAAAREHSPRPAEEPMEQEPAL
method-notes: Inhibition of human recombinant HDAC5 using Ac-Leu-Gly-Lys(Tfa)-AMC as substrate incubated for 30 mins by EnSpire plate reader analysis
recorded-endpoint: IC50
// return the numeric value with its unit appended

Exercise: Returns the measured IC50 for the input molecule. Input: C[Si](O)(O)CCCCCCC(=O)Nc1ccccc1
Solution: 600 nM

----------
System: MCF7
method-notes: Antiproliferative activity against human MCF7 cells assessed as reduction in cell growth incubated for 24 hrs
Type: functional, cell-based
protocol-conditions: MCF7, 24 h
recorded-endpoint: IC50 (µM)
Answers are plain numbers, in µM.

Exercise: Returns the measured IC50 for the input compound. Input: CC(C)OC(=O)/C(=N/NC(=O)c1ccc(CO[Si](C)(C)C(C)(C)C)o1)c1ccccc1
Solution: 3.5

----------
System: HT-29
method-notes: Antiproliferative activity against human HT-29 cells assessed as reduction in cell growth incubated for 24 hrs
Format: functional, cell-based
protocol-conditions: HT-29, 24 h
recorded-endpoint: pIC50
Answers are plain numbers, as −log10 of the molar value.

Exercise: Returns the measured pIC50 for the input compound. Input: CC(C)OC(=O)/C(=N/NC(=O)c1ccc(CO[Si](C)(C)C(C)(C)C)o1)c1ccccc1
Solution: 5.44

----------
target-under-test: Histone deacetylase 2 (Homo sapiens)
Sequence (Q92769 whole entry): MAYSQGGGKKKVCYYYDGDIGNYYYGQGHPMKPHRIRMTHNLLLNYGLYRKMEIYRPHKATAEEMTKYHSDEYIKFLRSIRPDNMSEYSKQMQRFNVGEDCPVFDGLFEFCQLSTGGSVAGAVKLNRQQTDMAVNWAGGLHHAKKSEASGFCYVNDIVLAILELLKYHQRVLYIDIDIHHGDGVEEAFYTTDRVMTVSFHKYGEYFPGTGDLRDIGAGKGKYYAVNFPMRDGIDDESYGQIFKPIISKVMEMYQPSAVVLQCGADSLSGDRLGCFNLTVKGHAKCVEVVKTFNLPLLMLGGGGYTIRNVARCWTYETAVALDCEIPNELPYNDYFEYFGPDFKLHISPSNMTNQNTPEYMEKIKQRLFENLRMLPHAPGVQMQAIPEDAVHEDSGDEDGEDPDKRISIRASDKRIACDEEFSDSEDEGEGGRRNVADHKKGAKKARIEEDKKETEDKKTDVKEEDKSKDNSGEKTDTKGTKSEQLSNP
recorded-endpoint: pIC50
Answers are plain numbers, as −log10 of the molar value.

Exercise: Lab note: need pIC50 with Histone deacetylase 2 (Homo sapiens) for entry C[Si](O)(O)CCCCCCC(=O)Nc1ccccc1 , please look it up.
Solution: 6.22

----------
target-under-test: UniProt:P12821
method-notes: Inhibition of ACE (unknown origin) using N-[3-(2-furyl)-acryloyl]- L -phenylalanylglycylglycin as substrate incubated for 5 mins
recorded-endpoint: IC50 (nM)
Answers are plain numbers, in nM.

compound: CC(C)CC(NC(=O)c1ccccc1)[Si](C)(O)CC(C)C(=O)N1CCC[C@H]1C(=O)O (mixture of isomers)
output-unit: nM
IC50: 14

// next item, IC50 requested
Exercise: Lab note: need IC50 with UniProt:P12821 for entry CC(C)CC(NC(=O)c1ccccc1)[Si](O)(O)CC(C)C(=O)N1CCC[C@H]1C(=O)O (mixture of isomers) , please look it up.
Solution: 3040

----------
System: Human immunodeficiency virus 1
method-notes: Antiviral activity against HIV-1 IIIB infected in human MT2 cells assessed as reduction in virus-induced cytopathic effect incubated for 4 days by spectrophotometric based MTT assay
Type: functional, organism-based
protocol-conditions: Human immunodeficiency virus 1, IIIB, MT2, 96 h
recorded-endpoint: IC50 (µM)
Give bare numbers, in µM.

Exercise: Returns the measured IC50 for the input molecule. Input: C[Si](O)(O[Si](C)(CCCn1cnc2c(N)ncnc21)c1ccccc1)c1ccccc1 (stereo unspecified)
Solution: 10

----------
method-notes: Agonist activity at rat GPR81 transfected in T-REX-CHO cells by cAMP assay
Format: cell-based
recorded-endpoint: pEC50
Answers are plain numbers, as −log10 of the molar value.

compound: CCOc1cc(Cl)c(C(=O)NC(=O)Nc2nc3c(s2)C[Si](c2ccccc2)(c2ccc(OC)cc2)CC3)cc1-n1cccn1 (stereo unspecified)
recorded-endpoint: pEC50
recorded-number: 6.68

compound: CCOc1cc(Cl)c(C(=O)NC(=O)Nc2nc3c(s2)CCCC3)cc1N1CCOCC1
recorded-endpoint: pEC50
recorded-number: 6.62

compound: CCOc1cc(Cl)c(C(=O)NC(=O)Nc2nc3c(s2)C[Si](c2ccccc2)(c2ccccc2)CC3)cc1N1CCOCC1
recorded-endpoint: pEC50
recorded-number: 6.00

compound: CCOc1cc(Cl)c(C(=O)NC(=O)Nc2nc3c(s2)CCCC3)cc1-n1cccn1
recorded-endpoint: pEC50
recorded-number: 7.74

compound: CCOc1cc(Cl)c(C(=O)NC(=O)Nc2nc3c(s2)C[Si](C)(C)CC3)cc1N1CCOCC1
recorded-endpoint: pEC50
recorded-number: 6.00

compound: CCC[Si]1(c2c(OC)cccc2OC)CCc2nc(NC(=O)NC(=O)c3cc(-n4cccn4)c(OCC)cc3Cl)sc2C1 (stereo unspecified)
recorded-endpoint: pEC50
recorded-number: 6.68

compound: CCOc1cc(Cl)c(C(=O)NC(=O)Nc2nc3c(s2)C[Si](c2ccccc2)(c2c(OC)cccc2OC)CC3)cc1-n1cccn1 (stereo unspecified)
recorded-endpoint: pEC50
recorded-number: 6.68

compound: CCOc1cc(Cl)c(C(=O)NC(=O)Nc2nc3c(s2)C[Si](C)(c2ccc(OC)cc2)CC3)cc1-n1cccn1 (stereo unspecified)
recorded-endpoint: pEC50
recorded-number: 6.68

compound: CCC[Si]1(c2ccc(OC)cc2)CCc2nc(NC(=O)NC(=O)c3cc(-n4cccn4)c(OCC)cc3Cl)sc2C1 (stereo unspecified)
recorded-endpoint: pEC50
recorded-number: 6.68

compound: CCC[Si]1(CCC)CCc2nc(NC(=O)NC(=O)c3cc(N4CCOCC4)c(OCC)cc3Cl)sc2C1
recorded-endpoint: pEC50
recorded-number: 6.00

Exercise: Returns the measured pEC50 for the input compound. Input: CCOc1cc(Cl)c(C(=O)NC(=O)Nc2nc3c(s2)C[Si](C)(c2c(OC)cccc2OC)CC3)cc1-n1cccn1 (stereo unspecified)
Solution: 6.68

Reference source: ChEMBL document CHEMBL6177939
